Where do the numbers come from? From ChEMBL document CHEMBL1153045.

test: Oral bioavailability in dog at 2 mg/kg, po; assay type: ADME, organism-based, Canis lupus familiaris; conditions: in vivo
measured_property: bioavailability
Please answer in the form of a number followed by its unit of measurement.

# query: bioavailability of entry `Cl.N[C@H]1Cn2c(nc3cnccc32)C[C@@H]1c1cc(F)c(F)cc1F`
120%

====

assay: Half life in rhesus monkey at 1 mg/kg, iv or 2 mg/kg, po; format: ADME, organism-based, Macaca mulatta; settings: in vivo
measured_property: half-life (h)
Express the result in h but write the number alone.

Sample `Cl.N[C@H]1Cn2c(nc3cnccc32)C[C@@H]1c1cc(F)c(F)cc1F` — what was its half-life?
1

====

test: Oral bioavailability in rhesus monkey at 2 mg/kg, po; assay type: ADME, organism-based, Macaca mulatta; details: in vivo
measured_property: bioavailability (%)
Dear colleague, please return just the value in %, with no unit written.

GET /values?readout=bioavailability&item= `Cl.N[C@H]1Cn2c(nc3cnccc32)C[C@@H]1c1cc(F)c(F)cc1F`
11

====

assay: Metabolic stability in rat hepatocytes assessed as compound remaining after 60 mins; format: ADME, cell-based, Hepatocyte; conditions: read-out: Stability
measured_property: remaining at 1 h

Request the reported remaining at 1 h associated with `N[C@H]1Cn2c(nc3cnccc32)C[C@@H]1c1cc(F)c(F)cc1F.O=C(O)C(F)(F)F.O=C(O)C(F)(F)F`
94%

====

test: Metabolic stability in rhesus monkey hepatocytes assessed as compound remaining after 60 mins; assay type: ADME, cell-based, Macaca mulatta, Hepatocyte; settings: read-out: Stability
measured_property: remaining at 1 h (%)
State the answer as a number, implicitly in %.

Entry `N[C@H]1Cn2c(nc3cnccc32)C[C@@H]1c1cc(F)c(F)cc1F.O=C(O)C(F)(F)F.O=C(O)C(F)(F)F` has what remaining at 1 h?
35

====

assay: Plasma clearance in rhesus monkey at 1 mg/kg, iv or 2 mg/kg, po; type: ADME, organism-based, Macaca mulatta
measured_property: clearance

GET /values?readout=clearance&item= `Cl.N[C@H]1Cn2c(nc3cnccc32)C[C@@H]1c1cc(F)c(F)cc1F`
35 mL/min/kg

====

experiment: Oral bioavailability in rat at 2 mg/kg, po; assay type: ADME, organism-based; conditions: in vivo
measured_property: bioavailability (%)
Note: unit % is implicit; provide only the numeric part.

Fill in the blank: the reported bioavailability of `N[C@H]1Cn2c(nc3cc(C(F)(F)F)ccc32)C[C@@H]1c1cc(F)c(F)cc1F.O=C(O)C(F)(F)F` is ____.
55

Request the reported bioavailability associated with `N[C@H]1Cn2c(nc3cc(C(=O)O)ccc32)C[C@@H]1c1cc(F)c(F)cc1F.O=C(O)C(F)(F)F`
24

What value of bioavailability has been recorded for this entry: `N[C@H]1Cn2c(nc3cnc(C(F)(F)F)cc32)C[C@@H]1c1cc(F)c(F)cc1F.O=C(O)C(F)(F)F.O=C(O)C(F)(F)F`
110

What value of bioavailability has been recorded for this entry: `N[C@H]1Cn2c(nc3cnccc32)C[C@@H]1c1cc(F)c(F)cc1F.O=C(O)C(F)(F)F.O=C(O)C(F)(F)F`
140

====

assay: Plasma clearance in rat at 1 mg/kg, iv or 2 mg/kg, po; format: ADME, organism-based
Answer each item with its documented clearance.
Provide only the numeric value, understood in mL/min/kg.

I would be grateful if you could share the reported clearance for `N[C@H]1Cn2c(nc3ncccc32)C[C@@H]1c1cc(F)c(F)cc1F.O=C(O)C(F)(F)F.O=C(O)C(F)(F)F` .
3.9

So what's the measured clearance for this one? `N[C@H]1Cn2c(nc3cnc(C(F)(F)F)cc32)C[C@@H]1c1cc(F)c(F)cc1F.O=C(O)C(F)(F)F.O=C(O)C(F)(F)F`
1.4

Would you mind telling me what clearance value was observed for `CS(=O)(=O)c1ccc2c(c1)nc1n2C[C@H](N)[C@@H](c2cc(F)c(F)cc2F)C1.O=C(O)C(F)(F)F` ?
2.2

Reported clearance for `N[C@H]1Cn2c(nc3cc(C(=O)O)ccc32)C[C@@H]1c1cc(F)c(F)cc1F.O=C(O)C(F)(F)F` : what is it?
61

// query clearance value for entry `N[C@H]1Cn2c(nc3cnc(F)cc32)C[C@@H]1c1cc(F)c(F)cc1F.O=C(O)C(F)(F)F.O=C(O)C(F)(F)F`
0.5

Fill in: clearance of `N[C@H]1Cn2c(nc3cnccc32)C[C@@H]1c1cc(F)c(F)cc1F.O=C(O)C(F)(F)F.O=C(O)C(F)(F)F` is ___
8.7

Which clearance value is on record for `N[C@H]1Cn2c(nc3ccc(F)cc32)C[C@@H]1c1cc(F)c(F)cc1F.O=C(O)C(F)(F)F` ?
25

Query (molecule): `N[C@H]1Cn2c(nc3cc(C(F)(F)F)ccc32)C[C@@H]1c1cc(F)c(F)cc1F.O=C(O)C(F)(F)F` ; field requested: clearance
4.8

====

test: Plasma clearance in mouse at 1 mg/kg, iv or 2 mg/kg, po; format: ADME, organism-based
measured_property: clearance (mL/min/kg)
Return type: number; implicit unit mL/min/kg.

Given `Cl.N[C@H]1Cn2c(nc3cnccc32)C[C@@H]1c1cc(F)c(F)cc1F` , state its recorded clearance.
36

====

experiment: Metabolic stability in dog liver microsomes assessed as compound remaining after 60 mins; type: ADME, Canis lupus familiaris, Microsome; details: read-out: Stability
measured_property: remaining at 1 h (%)
Numeric only. Scale: %

Return reported remaining at 1 h; argument: `N[C@H]1Cn2c(nc3cnccc32)C[C@@H]1c1cc(F)c(F)cc1F.O=C(O)C(F)(F)F.O=C(O)C(F)(F)F`
92

====

test: Half life in rat at 1 mg/kg, iv or 2 mg/kg, po; assay type: ADME, organism-based; details: in vivo
Fulfilled if half-life is below 4 h. Not fulfilled if not; exact matches included in Not fulfilled.

Say whether its half-life is strictly beneath 4 h. Entry: `N[C@H]1Cn2c(nc3ncccc32)C[C@@H]1c1cc(F)c(F)cc1F.O=C(O)C(F)(F)F.O=C(O)C(F)(F)F`
Fulfilled

Bench note: check whether `N[C@H]1Cn2c(nc3cc(C(=O)O)ccc32)C[C@@H]1c1cc(F)c(F)cc1F.O=C(O)C(F)(F)F` shows half-life below 4 h
Fulfilled

Say whether its half-life is strictly beneath 4 h. Entry: `N[C@H]1Cn2c(nc3cnc(F)cc32)C[C@@H]1c1cc(F)c(F)cc1F.O=C(O)C(F)(F)F.O=C(O)C(F)(F)F`
Not fulfilled

Please check: half-life for `N[C@H]1Cn2c(nc3cnc(C(F)(F)F)cc32)C[C@@H]1c1cc(F)c(F)cc1F.O=C(O)C(F)(F)F.O=C(O)C(F)(F)F` , strictly under 4 h or not?
Not fulfilled

Please indicate whether the reported half-life of `N[C@H]1Cn2c(nc3cnccc32)C[C@@H]1c1cc(F)c(F)cc1F.O=C(O)C(F)(F)F.O=C(O)C(F)(F)F` is strictly below 4 h.
Fulfilled

is_below(half-life, 4 h) for `N[C@H]1Cn2c(nc3ccc(F)cc32)C[C@@H]1c1cc(F)c(F)cc1F.O=C(O)C(F)(F)F` ?
Fulfilled

half-life under 4 h? Item: `CS(=O)(=O)c1ccc2c(c1)nc1n2C[C@H](N)[C@@H](c2cc(F)c(F)cc2F)C1.O=C(O)C(F)(F)F`
Fulfilled

Strictly below 4 h in half-life? `N[C@H]1Cn2c(nc3cc(C(F)(F)F)ccc32)C[C@@H]1c1cc(F)c(F)cc1F.O=C(O)C(F)(F)F`
Not fulfilled

====

test: Metabolic stability in rhesus monkey liver microsomes assessed as compound remaining after 60 mins; format: ADME, Macaca mulatta, Microsome; conditions: read-out: Stability
measured_property: remaining at 1 h (%)
Only the number, expressed in %, is required.

Any idea what remaining at 1 h was measured for `N[C@H]1Cn2c(nc3cnccc32)C[C@@H]1c1cc(F)c(F)cc1F.O=C(O)C(F)(F)F.O=C(O)C(F)(F)F` ?
69

====

test: Plasma clearance in dog at 1 mg/kg, iv or 2 mg/kg, po; type: ADME, organism-based, Canis lupus familiaris
measured_property: clearance
Don't forget the unit after the number, please.

Form field: reported clearance of `Cl.N[C@H]1Cn2c(nc3cnccc32)C[C@@H]1c1cc(F)c(F)cc1F`
2.7 mL/min/kg

====

experiment: Half life in dog at 1 mg/kg, iv or 2 mg/kg, po; assay type: ADME, organism-based, Canis lupus familiaris; conditions: in vivo
measured_property: half-life (h)
Express it in h; write the number only.

What value of half-life has been reported for the following molecule? `Cl.N[C@H]1Cn2c(nc3cnccc32)C[C@@H]1c1cc(F)c(F)cc1F`
13

====

biological target: UniProtKB Q9UHL4; experiment: Inhibition of human recombinant QPP transfected in insect SF9 cells; conditions: sf9
pIC50: −log10 of the molar value.
measured_property: pIC50

Which pIC50 reading was recorded for the molecule `N[C@H]1Cn2c(nc3cnccc32)C[C@@H]1c1cc(F)c(F)cc1F.O=C(O)C(F)(F)F.O=C(O)C(F)(F)F` ?
< 4.00
